// provenance: ChEMBL document CHEMBL1201862

# Tested on: SK-OV-3
# protocol notes: NCI tumour cell line growth inhibition, 48 h
Activity calls are given as the source filed them. Cut-off read from the data, not from the text of the source: active = GI50 up to about 1.1 µM and inactive = higher.
Response enum: active, inactive

*Q* // param item: O=C1CNC(=O)N1 ; yields the recorded call
*A* inactive

*Q* What classification did CC(CCCOC(c1ccccc1)(c1ccccc1)c1ccccc1)OC(=O)Nc1cc([N+](=O)[O-])cc([N+](=O)[O-])c1 (centres undefined) end up with in this test?
*A* inactive

*Q* Short answer needed: outcome of this test for Cc1ccc(NC(=O)CSc2nnc(Cc3ccccc3)o2)cc1 ?
*A* inactive

*Q* Tell me the recorded outcome of this test for C/C1=C\[C@H](C)C[C@H](C)OC(=O)C[C@H](c2ccc(O)cc2)NC(=O)[C@H](Cc2ccc(O)c(Br)c2)N(C)C(=O)[C@H](C)NC(=O)[C@@H](C)C1 .
*A* inactive

*Q* Hi, do you know how CC1(C)[C@@H]2CC[C@@]1(C)[C@@H]1O[C@@H](O[C@@H](CN)c3cc(Cl)c(OCc4ccccc4)c(OCc4ccccc4)c3)C[C@H]21 came out in this test?
*A* active

*Q* Per the assay record, what outcome was assigned to CCCCCCCCCOCC(COP(=O)([O-])OCC[N+](C)(C)C)OC (centres undefined) ?
*A* inactive

*Q* Recorded test call requested for O=c1onc2n1-c1ccc(Cl)cc1C(=S)N1CSCC21 (centres undefined)
*A* inactive

*Q* What was the test verdict on CCO/C([O-])=C(\C(=O)c1ccccc1)[n+]1c(C)sc2ccccc21 ?
*A* inactive

*Q* Dear colleague, could you share the recorded outcome for Cc1nc(-c2cc3cc([N+](=O)[O-])ccc3oc2=O)cs1 when you have a moment?
*A* inactive
